Target Entity: hMRGX2 (CHO-K1 cells overexpressing MRGX2) (Homo sapiens (Human))
Sequence (Q96LB1 whole entry): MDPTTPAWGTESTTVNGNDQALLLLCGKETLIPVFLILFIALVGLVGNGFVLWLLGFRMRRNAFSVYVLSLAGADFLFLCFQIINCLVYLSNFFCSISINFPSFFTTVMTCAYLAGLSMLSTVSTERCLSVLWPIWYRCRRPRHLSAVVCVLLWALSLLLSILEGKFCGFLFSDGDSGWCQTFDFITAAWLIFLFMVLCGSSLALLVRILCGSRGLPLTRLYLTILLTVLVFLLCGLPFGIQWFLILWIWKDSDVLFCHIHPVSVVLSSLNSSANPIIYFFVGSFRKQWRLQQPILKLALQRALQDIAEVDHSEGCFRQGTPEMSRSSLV
Test Summary: In vitro inhibition (EC50) of intracellular calcium flux, FLIPR Tetra, substance P stimulation
Type: cell-based
Condition Parameters: stimulated with MRGX2 ligand substance P, FLIPR Calcium 5, read-out: hMRGX2 Cellular Potency (pEC50) (converted)
Label t when EC50 < 100 nM; otherwise f.

// known answers, use as guide
{"columns": ["Molecule", "Class Label"],
 "data": [
  ["O=S1(=O)N=C(NCCc2cccnc2)Nc2c(-c3cccc(F)c3Cl)cccc21 [Example 69]", "f"],
  ["O=S1(=O)N=C(NC2CC2)Nc2c(-c3cccc(F)c3Cl)cccc21 [Example 159]", "t"],
  ["Cn1cccc(CNC2=NS(=O)(=O)c3cccc(-c4cccc(F)c4F)c3N2)c1=O [Example 20]", "f"],
  ["CCNC1=NS(=O)(=O)c2cc(F)cc(-c3ccccc3Cl)c2N1 [Example 15]", "t"],
  ["Cc1c(-c2cccc3c2NC(Nc2ccc(C(C)C)cc2)=NS3(=O)=O)cnn1C [Example 114]", "f"]
]}

In: Answer whether the molecule CNC1=NS(=O)(=O)c2cccc(-c3ccc(F)cc3Cl)c2N1 [Example 94] has EC50 strictly less than 100 nM
Out: f

In: Answer whether the molecule O=S1(=O)N=C(NCc2ccco2)Nc2c(-c3cc(F)cc(F)c3)cccc21 [Example 164] has EC50 strictly less than 100 nM
Out: f

In: Answer whether the molecule Cc1coc(CNC2=NS(=O)(=O)c3cccc(-c4cccc(F)c4Cl)c3N2)n1 [Example 30] has EC50 strictly less than 100 nM
Out: t

In: Answer whether the molecule O=S1(=O)N=C(NCc2ccncc2)Nc2c(-c3cc(F)cc(F)c3)cccc21 [Example 82] has EC50 strictly less than 100 nM
Out: f

In: Answer whether the molecule Cc1cc(-c2cccc3c2NC(Nc2ccc(C(C)C)cc2)=NS3(=O)=O)n[nH]1 [Example 98] has EC50 strictly less than 100 nM
Out: f

In: Answer whether the molecule COCCNC1=NS(=O)(=O)c2cccc(-c3cccc(C(F)(F)F)c3Cl)c2N1 [Example 132] has EC50 strictly less than 100 nM
Out: f
